test: Hemolytic activity against RBC (unknown origin) at 480 uM; assay type: ADME, cell-based, Erythrocyte; details: red blood cells (erythrocytes); read-out: Activity
Non-standard residues stand in square brackets, D forms with d. Residues, ends and D or L forms follow the SMILES beside them. Orn = NCCC[C@H](N)C(=O)O
MEASUREMENT KIND: hemolysis at 480 µM
Could you give the number and then its unit, please?

What value of hemolysis at 480 µM has been reported for the following compound? CCCCCCCCCC[P+](Cc1ccccc1O)(c1ccccc1)c1ccccc1.[Cl-]
16.4%

# repeat for CCCCCCCCCCCCCCCC[P+](Cc1ccccc1O)(c1ccccc1)c1ccccc1.[Cl-]
100%

Would you kindly repeat that for CCCCCCC[P+](Cc1ccccc1O)(c1ccccc1)c1ccccc1.[Cl-] ?
3.6%

What about CCCCCCCCCCCCCCCCCC[P+](Cc1ccccc1O)(c1ccccc1)c1ccccc1.[Cl-] ?
100%

Next record, please: CCCCCCCCCCCCCC[P+](Cc1ccccc1O)(c1ccccc1)c1ccccc1.[Cl-]
100%

How about CCCCCC[P+](Cc1ccccc1O)(c1ccccc1)c1ccccc1.[Cl-] ?
4.8%

Follow-up item: CC(C)C[C@@H]1NC(=O)[C@H](CCCN)NC(=O)[C@H](C(C)C)NC(=O)[C@@H]2CCCN2C(=O)[C@@H](Cc2ccccc2)NC(=O)[C@H](CC(C)C)NC(=O)[C@H](CCCN)NC(=O)[C@H](C(C)C)NC(=O)[C@@H]2CCCN2C(=O)[C@@H](Cc2ccccc2)NC1=O (cyclo(L[dF]PV[Orn]L[dF]PV[Orn]))
100%

And then CCCCCCCCCCCC[P+](Cc1ccccc1O)(c1ccccc1)c1ccccc1.[Cl-] , what is it?
65.4%

Try this compound next: CCCCCCCC[P+](Cc1ccccc1O)(c1ccccc1)c1ccccc1.[Cl-]
8.5%
